Biological target: T1, rat pancreatic islet (wild type) GIP-receptor stably expressed on CHO-K1 cells (rat, UniProt P43219 19-455)
T1 sequence (looked up): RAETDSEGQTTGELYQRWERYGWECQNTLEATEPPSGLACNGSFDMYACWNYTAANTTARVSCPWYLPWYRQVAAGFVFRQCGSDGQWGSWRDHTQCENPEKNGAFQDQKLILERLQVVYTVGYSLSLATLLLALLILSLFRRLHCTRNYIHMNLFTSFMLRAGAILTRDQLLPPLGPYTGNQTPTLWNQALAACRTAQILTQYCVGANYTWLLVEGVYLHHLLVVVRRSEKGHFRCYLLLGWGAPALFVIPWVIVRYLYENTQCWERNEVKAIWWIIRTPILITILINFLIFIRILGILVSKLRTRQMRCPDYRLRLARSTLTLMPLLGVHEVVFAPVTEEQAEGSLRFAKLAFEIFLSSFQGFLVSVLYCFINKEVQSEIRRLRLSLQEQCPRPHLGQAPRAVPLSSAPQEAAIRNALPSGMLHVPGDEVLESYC
Test: cell-based or functional assay
Ends that are not written are not given here.
Binary classification by cAMP Production (Fold Basal) at 10 µM, with 7 fold basal as an inclusive lower bound for Met; all other cases are Not met.

Prompt: Identify whether the reported cAMP Production (Fold Basal) at 10 µM of the following binder is 7 fold basal or greater: QQDFVNWLLAQK-NH2 (peptide, UniProt P09681 70-81, looked up, range 19-30; also called GIP19-30a) [GIP 19-30NH2]
Response: Met

Prompt: # bool: cAMP Production (Fold Basal) at 10 µM of YAEGTFISDYSIAM-OH (peptide, UniProt P09681 52-65, looked up, range 1-14; free acid form; also called native GIP (1-14)) [GIP 1-14OH] >= 7 fold basal
Response: Met

Prompt: Does IRQQDFVNWLLAQK-NH2 (peptide, UniProt P01281 17-30, looked up, range 17-30; also called GIP17-30a) [GIP 17-30NH2] have a reported cAMP Production (Fold Basal) at 10 µM of at least 7 fold basal?
Response: Not met

Prompt: Determine whether measured cAMP Production (Fold Basal) at 10 µM meets or exceeds 7 fold basal for DKIRQQDFVNWLLAQK-NH2 (peptide, UniProt P01281 15-30, looked up, range 15-30; also called GIP15-30a) [GIP 15-30NH2]
Response: Not met

Prompt: Evaluate YAEGTFISDYSIAM-NH2 (peptide, UniProt P09681 52-65, looked up, range 1-14) [GIP 1-14NH2] : cAMP Production (Fold Basal) at 10 µM at minimum 7 fold basal?
Response: Met

Prompt: Threshold query (cAMP Production (Fold Basal) at 10 µM >= 7 fold basal) on YAEGTFISDYSIA-NH2 (peptide, UniProt P09681 52-64, looked up, range 1-13) [GIP 1-13NH2]
Response: Not met

Entry source: patent US20050137135A1
